# MFI Ratio per record follows
- target of assay: T1, full length human GLP-1R with N-terminal FLAG tag and C-terminal GFP tag, on CHO cells (human, UniProt P43220 24-463)
- T1 construct: whole, on cells; the cell line itself is tied to UniProt P43220; also called FLAG-GLP-1R-GFP; CHO-GLP-1R
- method description: flow cytometry, expressing vs parent CHO cells
measured quantity: MFI Ratio

GLP1R-3 (antibody, human IgG2, lambda, V domains shown, full length human IgG2; also called GLP1R01-3) VH: QVQLVESGGGVVQPGRSLRLSCAASGFTFSSYGMHWVRQAPGKGLEWVSFISYDESNKYYADSVKGRFTISRDNSKNTLYLQMNSLRAEDTAVYYCAKHMSMQEGAVTGEGQAAKEFIAWLVKGRVRADLVGDAFDVWGQGTLVTVSS VL: QSVLTQPPSVSAAPGQKVTISCSGSSSNIADNYVSWYQQLPGTAPKLLIYDNNKRPSGIPDRFSGSKSGTSATLGITGLQTGDEADYYCGTWDNYLGAGVFGGGTKLTVLG
993
GLP1R-221-076 (antibody, V domains shown, IgG) VH: QVQLVESGGGVVQPGRSLRLSCAASGFTFNNYPMHWVRQAPGKGLEWVAVISYDETNKYYADSVKGRFTISRDNSKNTLYLQMNSLRAEDTAVYYCAKHMSMQEGAVTGEGQAAKEFIAWLVKGIVRADLVGDAFDVWGQGTLVTVSS VL: QSVLTQPPSVSAAPGQKVTISCSGTSSNIGNNDVSWYQQLPGTAPKLLIYENNKRHSGIPDRFSGSKSGTSATLGITGLQTGDEADYYCLTWDHSLTAYVFGGGTKLTVL
747
GLP1R-221-034 (antibody, V domains shown, IgG) VH: QVQLVESGGGVVQPGRSLRLSCAASGFPFSNYGMHWVRQAPGKGLEWVAVISHDRSNKYYADSVKGRFTISRDNSKNTLYLQMNSLRAEDTAVYYCAKHMSMQEGAVTGEGQAVKEFIAWLVKGRVRADLVGDAFDVWGQGTLVTVSS VL: QSVLTQPPSVSAAPGQKVTISCSGSSSNIGNNPVSWYQQLPGTAPKLLIYENDNRPSGIPDRFSGSKSGTSATLGITGLQTGDEADYYCATWDRGLSTGVFGGGTKLTVL
711
GLP1R-221-017 (antibody, V domains shown, IgG) VH: QVQLVESGGGVVQPGRSLRLSCAASGFTFSDYGVHWVRQAPGKGLEWVAFISYDESNKYYADSVKGRFTISRDNSKNTLYLQMNSLRAEDTAVYYCAKHMSMQEGAVTGEYQAAKEFIAWLVKGRVRADLVGDAFDVWGQGTLVTVSS VL: QSVLTQPPSVSAAPGQKVTISCSGSSSNIGNTYVSWYQQLPGTAPKLLIYDDYKRPSGIPDRFSGSKSGTSATLGITGLQTGDEADYYCATWDATLNTGVFGGGTKLTVL
1480
